Measured values drawn from the supplement of paper PMC13386468 for this set.

- target_of_assay: UniProt Q8I3T8
- assay_overview: IC50 for competition of protein binding to Kinobeads;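 further: native unpurified kinases from lysate captured on beads bearing immobilized kinase inhibitors, with bead-bound kinases quantified by mass spectrometry across compound doses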
- condition_info: assay detail: Kinobeads competition in P. falciparum blood-stage lysate
pIC50: −log10 of the molar value.
observed_property: pIC50

get_value(item= O=c1[nH]c2ccc(Cl)cc2c(NC2CN3CCC2CC3)c1-c1nc2ccccc2[nH]1 (stereo unspecified) , readout=pIC50) returns < 4.70

---

- target_of_assay: UniProt C6KSY6
- assay_overview: IC50 for competition of protein binding to Kinobeads
- condition_info: assay detail: Kinobeads competition in P. falciparum blood-stage lysate
pIC50: −log10 of the molar value.
observed_property: pIC50

get_value(item= O=c1[nH]c2ccc(Cl)cc2c(NC2CN3CCC2CC3)c1-c1nc2ccccc2[nH]1 (stereo unspecified) , readout=pIC50) returns < 4.70

---

- target_of_assay: UniProt Q8IM38
- assay_overview: IC50 for competition of protein binding to Kinobeads
- condition_info: assay detail: Kinobeads competition in P. falciparum blood-stage lysate
pIC50: −log10 of the molar value.
observed_property: pIC50

get_value(item= O=c1[nH]c2ccc(Cl)cc2c(NC2CN3CCC2CC3)c1-c1nc2ccccc2[nH]1 (stereo unspecified) , readout=pIC50) returns < 4.70

---

- target_of_assay: UniProt O96278
- assay_overview: IC50 for competition of protein binding to Kinobeads
- condition_info: assay detail: Kinobeads competition in P. falciparum blood-stage lysate
pIC50: −log10 of the molar value.
observed_property: pIC50

get_value(item= O=c1[nH]c2ccc(Cl)cc2c(NC2CN3CCC2CC3)c1-c1nc2ccccc2[nH]1 (stereo unspecified) [CHIR-124] , readout=pIC50) returns < 4.70

---

- target_of_assay: UniProt C0H4M6
- assay_overview: IC50 for competition of protein binding to Kinobeads
- condition_info: assay detail: Kinobeads competition in P. falciparum blood-stage lysate
pIC50: −log10 of the molar value.
observed_property: pIC50

get_value(item= O=c1[nH]c2ccc(Cl)cc2c(NC2CN3CCC2CC3)c1-c1nc2ccccc2[nH]1 (stereo unspecified) , readout=pIC50) returns < 4.70

---

- target_of_assay: UniProt C0H5I7
- assay_overview: IC50 for competition of protein binding to Kinobeads
- condition_info: assay detail: Kinobeads competition in P. falciparum blood-stage lysate
observed_property: IC50

get_value(item= O=c1[nH]c2ccc(Cl)cc2c(NC2CN3CCC2CC3)c1-c1nc2ccccc2[nH]1 (stereo unspecified) , readout=IC50) returns > 20 µM

---

- target_of_assay: UniProt Q8IJQ9
- assay_overview: IC50 for competition of protein binding to Kinobeads
- condition_info: assay detail: Kinobeads competition in P. falciparum blood-stage lysate
pIC50: −log10 of the molar value.
observed_property: pIC50

get_value(item= O=c1[nH]c2ccc(Cl)cc2c(NC2CN3CCC2CC3)c1-c1nc2ccccc2[nH]1 (stereo unspecified) [CHIR-124] , readout=pIC50) returns < 4.70

---

- target_of_assay: UniProt Q8I291
- assay_overview: IC50 for competition of protein binding to Kinobeads
- condition_info: assay detail: Kinobeads competition in P. falciparum blood-stage lysate
pIC50: −log10 of the molar value.
observed_property: pIC50

UniProt Q8I291 data for O=c1[nH]c2ccc(Cl)cc2c(NC2CN3CCC2CC3)c1-c1nc2ccccc2[nH]1 (stereo unspecified) ; its pIC50: < 4.70

---

- target_of_assay: UniProt Q8IIF0
- assay_overview: IC50 for competition of protein binding to Kinobeads
- condition_info: assay detail: Kinobeads competition in P. falciparum blood-stage lysate
pIC50: −log10 of the molar value.
observed_property: pIC50

get_value(item= O=c1[nH]c2ccc(Cl)cc2c(NC2CN3CCC2CC3)c1-c1nc2ccccc2[nH]1 (stereo unspecified) , readout=pIC50) returns < 4.70

---

- target_of_assay: UniProt Q8I562
- assay_overview: IC50 for competition of protein binding to Kinobeads
- condition_info: assay detail: Kinobeads competition in P. falciparum blood-stage lysate
pIC50: −log10 of the molar value.
observed_property: pIC50

get_value(item= O=c1[nH]c2ccc(Cl)cc2c(NC2CN3CCC2CC3)c1-c1nc2ccccc2[nH]1 (stereo unspecified) , readout=pIC50) returns < 4.70

---

- target_of_assay: UniProt Q8IIW6
- assay_overview: IC50 for competition of protein binding to Kinobeads
- condition_info: assay detail: Kinobeads competition in P. falciparum blood-stage lysate
observed_property: IC50 (nM)
Answer with a number only, understood to be in nM.

get_value(item= O=c1[nH]c2ccc(Cl)cc2c(NC2CN3CCC2CC3)c1-c1nc2ccccc2[nH]1 (stereo unspecified) , readout=IC50) returns 250

---

- target_of_assay: UniProt O97256
- assay_overview: IC50 for competition of protein binding to Kinobeads
- condition_info: assay detail: Kinobeads competition in P. falciparum blood-stage lysate
pIC50: −log10 of the molar value.
observed_property: pIC50

get_value(item= O=c1[nH]c2ccc(Cl)cc2c(NC2CN3CCC2CC3)c1-c1nc2ccccc2[nH]1 (stereo unspecified) [CHIR-124] , readout=pIC50) returns < 4.70

---

- target_of_assay: UniProt Q8IHY0
- assay_overview: IC50 for competition of protein binding to Kinobeads
- condition_info: assay detail: Kinobeads competition in P. falciparum blood-stage lysate
observed_property: IC50

UniProt Q8IHY0 data for O=c1[nH]c2ccc(Cl)cc2c(NC2CN3CCC2CC3)c1-c1nc2ccccc2[nH]1 (stereo unspecified) ; its IC50: > 20 µM

---

- target_of_assay: UniProt Q8IB60
- assay_overview: IC50 for competition of protein binding to Kinobeads
- condition_info: assay detail: Kinobeads competition in P. falciparum blood-stage lysate
observed_property: IC50

get_value(item= O=c1[nH]c2ccc(Cl)cc2c(NC2CN3CCC2CC3)c1-c1nc2ccccc2[nH]1 (stereo unspecified) , readout=IC50) returns > 20 µM

---

- target_of_assay: UniProt Q8ILP6
- assay_overview: IC50 for competition of protein binding to Kinobeads
- condition_info: assay detail: Kinobeads competition in P. falciparum blood-stage lysate
pIC50: −log10 of the molar value.
observed_property: pIC50

get_value(item= O=c1[nH]c2ccc(Cl)cc2c(NC2CN3CCC2CC3)c1-c1nc2ccccc2[nH]1 (stereo unspecified) [CHIR-124] , readout=pIC50) returns < 4.70

---

- target_of_assay: UniProt Q9TY98
- assay_overview: IC50 for competition of protein binding to Kinobeads
- condition_info: assay detail: Kinobeads competition in P. falciparum blood-stage lysate
pIC50: −log10 of the molar value.
observed_property: pIC50

get_value(item= O=c1[nH]c2ccc(Cl)cc2c(NC2CN3CCC2CC3)c1-c1nc2ccccc2[nH]1 (stereo unspecified) , readout=pIC50) returns < 4.70

---

- target_of_assay: UniProt Q8I586
- assay_overview: IC50 for competition of protein binding to Kinobeads
- condition_info: assay detail: Kinobeads competition in P. falciparum blood-stage lysate
pIC50: −log10 of the molar value.
observed_property: pIC50

get_value(item= O=c1[nH]c2ccc(Cl)cc2c(NC2CN3CCC2CC3)c1-c1nc2ccccc2[nH]1 (stereo unspecified) [CHIR-124] , readout=pIC50) returns < 4.70

---

- target_of_assay: UniProt Q8IBK8
- assay_overview: IC50 for competition of protein binding to Kinobeads
- condition_info: assay detail: Kinobeads competition in P. falciparum blood-stage lysate
observed_property: IC50

get_value(item= O=c1[nH]c2ccc(Cl)cc2c(NC2CN3CCC2CC3)c1-c1nc2ccccc2[nH]1 (stereo unspecified) [CHIR-124] , readout=IC50) returns > 20 µM

---

- target_of_assay: UniProt Q8IES0
- assay_overview: IC50 for competition of protein binding to Kinobeads
- condition_info: assay detail: Kinobeads competition in P. falciparum blood-stage lysate
observed_property: IC50

get_value(item= O=c1[nH]c2ccc(Cl)cc2c(NC2CN3CCC2CC3)c1-c1nc2ccccc2[nH]1 (stereo unspecified) , readout=IC50) returns > 20 µM

---

- target_of_assay: UniProt Q8I2Z8
- assay_overview: IC50 for competition of protein binding to Kinobeads
- condition_info: assay detail: Kinobeads competition in P. falciparum blood-stage lysate
observed_property: IC50

get_value(item= O=c1[nH]c2ccc(Cl)cc2c(NC2CN3CCC2CC3)c1-c1nc2ccccc2[nH]1 (stereo unspecified) , readout=IC50) returns > 20 µM

---

- target_of_assay: UniProt Q8I2X3
- Sequence (whole entry): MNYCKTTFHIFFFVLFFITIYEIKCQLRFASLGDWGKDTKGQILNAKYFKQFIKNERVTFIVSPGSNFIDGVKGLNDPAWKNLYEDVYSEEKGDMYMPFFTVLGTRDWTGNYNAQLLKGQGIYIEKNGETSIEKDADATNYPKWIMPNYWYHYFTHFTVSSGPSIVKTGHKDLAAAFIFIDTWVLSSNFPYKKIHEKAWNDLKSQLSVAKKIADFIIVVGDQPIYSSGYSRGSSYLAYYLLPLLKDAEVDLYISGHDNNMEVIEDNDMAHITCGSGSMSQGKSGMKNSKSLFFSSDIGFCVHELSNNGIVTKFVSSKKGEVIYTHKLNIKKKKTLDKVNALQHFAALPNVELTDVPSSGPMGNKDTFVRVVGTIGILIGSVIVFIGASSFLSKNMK
- assay_overview: IC50 for competition of protein binding to Kinobeads
- condition_info: assay detail: Kinobeads competition in P. falciparum blood-stage lysate
observed_property: IC50

get_value(item= O=c1[nH]c2ccc(Cl)cc2c(NC2CN3CCC2CC3)c1-c1nc2ccccc2[nH]1 (stereo unspecified) [CHIR-124] , readout=IC50) returns > 20 µM
